# System: Mel-DCC-11-R
# MEASUREMENT NOTES: cell viability relative to DMSO control (fraction of DMSO control); higher = less cytotoxic, active = 0.8 or less
# SETUP CONDITIONS: 1 µM; 120 h; vemurafenib co-treatment 8 µM
I would appreciate it if you answered using one of these outcomes: true (active), false (inactive)

So what was the verdict on "COC(=O)Nc1nc2ccc(C(=O)c3cccs3)cc2[nH]1" in this test?
true

So what was the verdict on "C#Cc1cccc(Nc2ncnc3cc(OCCOC)c(OCCOC)cc23)c1" in this test?
true

So what was the verdict on "Cc1nc2ccc(CN(C)c3ccc(C(=O)N[C@@H](CCC(=O)O)C(=O)O)s3)cc2c(=O)[nH]1" in this test?
false

So what was the verdict on "O=c1ccn([C@@H]2O[C@H](CO)[C@@H](O)[C@H]2O)c(=O)[nH]1" in this test?
false

So what was the verdict on "Cc1coc2c1C(=O)C(=O)c1c-2ccc2c(C)cccc12" in this test?
false

So what was the verdict on "Cc1ccc(=O)n(-c2ccccc2)c1" in this test?
false

So what was the verdict on Cl.NNc1nncc2ccccc12 [Hydralazine hydrochloride] in this test?
false

So what was the verdict on CC(=O)OCC(=O)[C@@]1(O)CC[C@H]2[C@@H]3CCC4=CC(=O)C=C[C@]4(C)[C@H]3[C@@H](O)C[C@@]21C [Prednisolone-21-acetate] in this test?
false

So what was the verdict on "Cn1nnc(-c2ccc(-c3ccc(N4C[C@H](CO)OC4=O)cc3F)cn2)n1" in this test?
true

So what was the verdict on "CCCCCOC(=O)Nc1nc(=O)n([C@@H]2O[C@H](C)[C@@H](O)[C@H]2O)cc1F" in this test?
false

So what was the verdict on CCN(CC)CCOc1ccc2c(c1)C(=O)c1cc(OCCN(CC)CC)ccc1-2.Cl.Cl [Tilorone dihydrochloride] in this test?
false

So what was the verdict on "O=C(/C=C/c1ccc(O)cc1)c1ccc(O)cc1O" in this test?
false

So what was the verdict on "CCOC(N)=O" in this test?
false

So what was the verdict on "C1=C/COCc2cc(ccc2OCCN2CCCC2)Nc2nccc(n2)-c2cccc(c2)COC/1" in this test?
false

So what was the verdict on "O=C(c1cc(Cc2n[nH]c(=O)c3ccccc23)ccc1F)N1CCN(C(=O)C2CC2)CC1" in this test?
false

So what was the verdict on "Nc1ccccc1NC(=O)c1ccc(CNC(=O)OCc2cccnc2)cc1" in this test?
false

So what was the verdict on "N#CC[C@@H](C1CCCC1)n1cc(-c2ncnc3[nH]ccc23)cn1" in this test?
false

So what was the verdict on CCCC(=O)O[C@]1(C(=O)CO)CC[C@H]2[C@@H]3CCC4=CC(=O)CC[C@]4(C)[C@H]3[C@@H](O)C[C@@]21C [Hydrocortisone butyrate] in this test?
false

So what was the verdict on CN(CCOc1ccc(CC2SC(=O)NC2=O)cc1)c1ccccn1.O=C(O)/C=C\C(=O)O (stereo unspecified) [Rosiglitazone maleate] in this test?
false

So what was the verdict on "CCCc1cc(C)[nH]c(=O)c1CNC(=O)c1cc(-c2ccnc(N3CCN(C)CC3)c2)cc2c1cnn2C(C)C" in this test?
false

So what was the verdict on "Cc1ccc(NC(=O)C2(c3ccc4c(c3)OC(F)(F)O4)CC2)nc1-c1cccc(C(=O)O)c1" in this test?
false

So what was the verdict on O=C(/C=C\n1cnc(-c2cc(C(F)(F)F)cc(C(F)(F)F)c2)n1)NNc1cnccn1 [Selinexor] in this test?
true

So what was the verdict on "C[C@@H]1O[C@@H](O[C@H]2[C@H](Oc3cc(O)c4c(c3)O[C@H](c3ccc(O)cc3)CC4=O)O[C@H](CO)[C@@H](O)[C@@H]2O)[C@H](O)[C@H](O)[C@H]1O" in this test?
false

So what was the verdict on COc1cccc2c1C(=O)c1c(O)c3c(c(O)c1C2=O)C[C@@](O)(C(=O)CO)C[C@@H]3O[C@H]1C[C@H](N)[C@@H](O)[C@H](C)O1.Cl [Epirubicin hydrochloride] in this test?
true

So what was the verdict on "COC(=O)c1cc(OC)c2c(c1-c1c(CO)cc(OC)c3c1OCO3)OCO2" in this test?
false

So what was the verdict on "CC[C@@H]1C(=O)N(C)c2cnc(Nc3ccc(C(=O)N[C@H]4CC[C@H](N5CCN(CC6CC6)CC5)CC4)cc3OC)nc2N1C(C)C" in this test?
true

So what was the verdict on CC(O)(P(=O)(O)O)P(=O)(O)O [Etidronate] in this test?
false

So what was the verdict on CNC(=O)c1ccc(N2C(=S)N(c3ccc(C#N)c(C(F)(F)F)c3)C(=O)C2(C)C)cc1F [Enzalutamide] in this test?
false

So what was the verdict on "COc1cc(NS(C)(=O)=O)ccc1Nc1c2ccccc2nc2ccccc12" in this test?
true

So what was the verdict on "CS(=O)(=O)c1ccc(C2=C(c3ccccc3)C(=O)OC2)cc1" in this test?
false

So what was the verdict on Nc1nc(F)nc2c1ncn2[C@@H]1O[C@H](COP(=O)(O)O)[C@@H](O)[C@@H]1O [Fludarabine Phosphate] in this test?
false
